# TARGET_OR_TEST_SYSTEM: AC8 (Homo sapiens)
# MEASUREMENT_DESCRIPTION: Adenylyl cyclase cAMP accumulation assay, HEK-ACA3/6 cells overexpressing human AC8
# Format: cell-based
# Design: expressed in transfected cells; host or cells: HEK-ACA3/6 cells (so in the source) overexpressing human AC8
# RECORDED_CONDITIONS: Table 2; percent inhibition at the highest concentration (dilution starting at 30 μM); read-out: Max AC8 % inhibition
# Procedure: Cryopreserved HEK-ACA3/6 cells overexpressing human AC1, AC2, AC5, or AC8 were transferred to a 15 mL Falcon tube and gently resuspended in prewarmed Opti-MEM.50 The cells were centrifuged for 5 min at 150 g, the supernatant was discarded, and the cell pellet was resuspended in 10 mL for a second centrifugation step. Then, the cells were counted, plated in a white opaque 384-well plate, and incubated for 1 h in a 37° C. incubator supplemented with 5% CO2. […]
# Sequence (P40145 whole entry): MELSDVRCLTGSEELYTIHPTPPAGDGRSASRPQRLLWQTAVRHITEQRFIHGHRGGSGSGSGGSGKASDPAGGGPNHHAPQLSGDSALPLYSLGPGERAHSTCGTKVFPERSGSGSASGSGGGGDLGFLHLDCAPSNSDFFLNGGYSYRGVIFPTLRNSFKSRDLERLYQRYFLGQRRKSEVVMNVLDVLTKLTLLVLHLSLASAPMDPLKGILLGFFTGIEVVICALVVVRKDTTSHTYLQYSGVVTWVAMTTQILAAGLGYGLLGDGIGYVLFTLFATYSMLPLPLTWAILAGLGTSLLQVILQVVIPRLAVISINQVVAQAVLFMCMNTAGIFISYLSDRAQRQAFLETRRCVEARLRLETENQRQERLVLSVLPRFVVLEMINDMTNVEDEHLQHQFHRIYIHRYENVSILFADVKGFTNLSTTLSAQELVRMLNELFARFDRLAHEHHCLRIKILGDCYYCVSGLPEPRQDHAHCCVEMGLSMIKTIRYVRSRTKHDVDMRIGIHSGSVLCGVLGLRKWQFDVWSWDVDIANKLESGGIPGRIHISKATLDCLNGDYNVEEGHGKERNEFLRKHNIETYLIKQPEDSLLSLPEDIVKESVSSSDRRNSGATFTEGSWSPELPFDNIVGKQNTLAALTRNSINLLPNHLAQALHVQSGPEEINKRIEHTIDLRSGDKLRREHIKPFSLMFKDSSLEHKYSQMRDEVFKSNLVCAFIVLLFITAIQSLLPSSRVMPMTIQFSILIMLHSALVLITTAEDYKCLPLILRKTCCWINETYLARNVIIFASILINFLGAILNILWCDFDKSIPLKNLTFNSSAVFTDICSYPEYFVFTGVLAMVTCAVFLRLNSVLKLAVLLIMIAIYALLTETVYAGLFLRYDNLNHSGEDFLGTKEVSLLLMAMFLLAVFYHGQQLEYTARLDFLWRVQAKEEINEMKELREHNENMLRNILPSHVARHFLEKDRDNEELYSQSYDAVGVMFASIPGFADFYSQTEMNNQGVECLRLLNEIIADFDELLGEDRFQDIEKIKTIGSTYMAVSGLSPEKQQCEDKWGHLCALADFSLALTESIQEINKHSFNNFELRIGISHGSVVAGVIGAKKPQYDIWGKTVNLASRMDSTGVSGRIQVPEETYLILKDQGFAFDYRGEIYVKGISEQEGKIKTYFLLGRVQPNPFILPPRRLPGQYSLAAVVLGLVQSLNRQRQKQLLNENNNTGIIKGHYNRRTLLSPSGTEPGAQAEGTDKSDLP
Note to self: class labels come from recorded inhibition at up to 30 µM, ranges listed here: low range = under 30%, mid range = from 30% up to 50%, high range = 50% and over

                                   compound  target_or_test_system         cat
0  CCc1cc(=O)[nH]c(-n2nc(C)cc2NCc2ccc(C(=O)c3ccccc3)cc2)n1 [AC10144A]     AC8 (Homo sapiens)  high range
1  Cc1cccc(CNc2cc(C)nn2-c2nc3c(c(=O)[nH]2)CCC3)c1 [AC10115A]     AC8 (Homo sapiens)  high range
2  CCc1cc(=O)[nH]c(-n2nc(C)cc2NCc2cccs2)n1 [AC10140A]     AC8 (Homo sapiens)   low range
3  Cc1cc(=O)[nH]c(-n2nc(C)cc2NCc2ccc(Cl)cc2)n1 [AC10111A]     AC8 (Homo sapiens)   mid range
4  Cc1cc(NCc2ccc(Cl)cc2)n(-c2nc3c(c(=O)[nH]2)CCC3)n1 [AC10110A]     AC8 (Homo sapiens)   mid range
5  Cc1cc(NCc2ccc(Cl)cc2)n(-c2ccccc2)n1 [AC10113A]     AC8 (Homo sapiens)   low range
6  CCc1cc(=O)[nH]c(-n2nc(-c3ccccc3)cc2NCc2ccc(OC)cc2)n1 [AC10112A]     AC8 (Homo sapiens)   mid range
7  CCc1cc(=O)[nH]c(-n2nc(C)cc2NCc2ccco2)n1 [AC10139A]     AC8 (Homo sapiens)   low range
8  Cc1cccc(CNc2cc(C)nn2-c2nc(C)cc(=O)[nH]2)c1 [AC10114A]     AC8 (Homo sapiens)   mid range

Turning now to a further record.
Q. Class? Entry: Cc1cccc(CNc2cc(C)nn2-c2nccc(=O)[nH]2)c1 [AC10116A]
A. high range

###

# TARGET_OR_TEST_SYSTEM: AC8 (Homo sapiens)
# MEASUREMENT_DESCRIPTION: cAMP accumulation (HTRF) in HEK cells stably expressing AC8, stimulated with A23187
# Type: cell-based
# Set-up: expressed in transfected cells; host or cells: HEK cells stably expressing AC8 (HEK-AC8), hygromycin B selection
# RECORDED_CONDITIONS: Table 1; HEK-AC8 cells, A23187-stimulated cAMP accumulation
# Description: The primary technology we employed to measure cAMP accumulation was a homogenous time-resolved fluorescence (HTRF) assay, the same technology utilized in the primary screen. […] Briefly, cryopreserved cells were thawed, resuspended in optiMEM (Life Technologies), and plated in white, flat bottom, low-volume, tissue culture-treated 384 well plates (PerkinElmer, Shelton, Conn.). Plates with cells were incubated in a 37° C. humidified incubator for 1 h. […]
# Sequence (P40145 whole entry, species assumed): as the sequence (P40145 whole entry) above
Each entry below lists one item and its recorded IC50 value.
The reply should contain only the number, in µM.

Answered examples (3):
>>> print(df.to_string())
                                smiles_code  measurement_label  observed_result
0  CCc1cc(=O)[nH]c(-n2nc(C)cc2NC(=O)c2cccc(C)c2)n1               IC50               27
1  CCc1cc(=O)[nH]c(-n2nc(C)cc2NC(=O)c2ccc(F)cc2)n1               IC50               14
2  CCc1ccc(C(=O)Nc2cc(C)nn2-c2nc(CC)cc(=O)[nH]2)cc1               IC50               37

Q. Recorded IC50 for "CCc1cc(=O)[nH]c(-n2nc(C)cc2NC(=O)c2cccc(F)c2)n1" , please?
A. 12

Q. Value lookup for IC50; key = "CCc1cc(=O)[nH]c(-n2nc(C)cc2NC(=O)c2ccc(OCOC)cc2)n1"
A. 23

Q. What does the record list as IC50 for "CCc1cc(=O)[nH]c(-n2nc(C)cc2NC(=O)c2ccccc2CC)n1" ?
A. 50

Q. Quick one: IC50 of "CCc1cc(=O)[nH]c(-n2nc(C)cc2NC(=O)c2cccc(SC)c2)n1" ?
A. 9.7

Q. # input molecule: "CCc1cc(=O)[nH]c(-n2nc(C)cc2NC(=O)Cc2cccc(C)c2)n1" ; wanted: its IC50
A. 50

Q. For the molecule shown here, "CCc1cc(=O)[nH]c(-n2nc(C)cc2NC(=O)c2ccccn2)n1" , give the reported IC50.
A. 15

Q. // query IC50 value for entry "CCc1cc(=O)[nH]c(-n2nc(C)cc2NC(=O)c2cccc(Cl)c2)n1"
A. 6.9

Q. Look up IC50 for this molecule: "CCc1cc(=O)[nH]c(-n2nc(C)cc2NC(=O)c2ccc(OC)cc2)n1"
A. 33

Q. Find the recorded IC50 belonging to "CCc1cc(=O)[nH]c(-n2nc(C)cc2NC(=O)c2ccc(Cl)cc2)n1" and report it.
A. 9.5

Q. Can you look up the measured IC50 of "CCc1cc(=O)[nH]c(-n2nc(C)cc2NC(=O)c2cccc(C(F)(F)F)c2)n1" for me?
A. 18

Q. Looking for the measured IC50 of "CCc1cc(=O)[nH]c(-n2nc(C)cc2NC(=O)c2ccc(C)cc2)n1" , can you help?
A. 48

Q. Name the reported IC50 value associated with the molecule "CCc1cc(=O)[nH]c(-n2nc(C)cc2NC(=O)c2cccc(C(C)C)c2)n1"
A. 24

###

# TARGET_OR_TEST_SYSTEM: AC1 (Homo sapiens, UniProt Q08828)
# Sequence (Q08828 whole entry): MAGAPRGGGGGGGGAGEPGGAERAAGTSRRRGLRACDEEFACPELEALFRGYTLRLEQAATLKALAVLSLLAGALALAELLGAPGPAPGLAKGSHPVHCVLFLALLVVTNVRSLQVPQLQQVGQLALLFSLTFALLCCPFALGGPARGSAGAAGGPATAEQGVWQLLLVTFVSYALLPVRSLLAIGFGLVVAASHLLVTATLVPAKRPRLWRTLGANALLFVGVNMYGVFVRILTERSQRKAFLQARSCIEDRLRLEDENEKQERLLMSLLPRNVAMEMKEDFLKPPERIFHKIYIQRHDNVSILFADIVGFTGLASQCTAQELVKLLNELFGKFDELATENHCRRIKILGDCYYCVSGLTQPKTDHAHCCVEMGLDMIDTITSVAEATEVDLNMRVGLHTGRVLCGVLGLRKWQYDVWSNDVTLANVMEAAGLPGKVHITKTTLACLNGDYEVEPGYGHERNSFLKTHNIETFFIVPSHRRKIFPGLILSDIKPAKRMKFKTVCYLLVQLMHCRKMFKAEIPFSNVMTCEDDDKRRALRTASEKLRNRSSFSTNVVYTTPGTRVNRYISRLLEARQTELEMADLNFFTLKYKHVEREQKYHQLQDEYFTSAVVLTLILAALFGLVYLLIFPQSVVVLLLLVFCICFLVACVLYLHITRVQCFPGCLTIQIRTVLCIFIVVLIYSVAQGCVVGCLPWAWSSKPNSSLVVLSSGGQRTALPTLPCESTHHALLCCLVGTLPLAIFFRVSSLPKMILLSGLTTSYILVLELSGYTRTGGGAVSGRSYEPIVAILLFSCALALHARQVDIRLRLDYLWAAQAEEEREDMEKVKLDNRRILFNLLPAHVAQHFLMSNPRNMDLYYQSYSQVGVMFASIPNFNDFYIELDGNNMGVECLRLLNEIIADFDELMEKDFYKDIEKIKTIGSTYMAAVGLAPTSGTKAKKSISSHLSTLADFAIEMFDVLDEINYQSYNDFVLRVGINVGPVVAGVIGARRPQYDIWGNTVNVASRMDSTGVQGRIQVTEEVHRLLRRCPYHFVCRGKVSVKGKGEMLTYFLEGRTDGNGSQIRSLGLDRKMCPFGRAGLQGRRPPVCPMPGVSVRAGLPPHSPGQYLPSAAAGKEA
# MEASUREMENT_DESCRIPTION: Adenylyl cyclase cAMP accumulation assay, HEK-ACA3/6 cells overexpressing human AC1
# Type: cell-based
# Set-up: expressed in transfected cells; host or cells: HEK-ACA3/6 cells (so in the source) overexpressing human AC1
# RECORDED_CONDITIONS: Table 2; 3 μM A23187 + 0.5 mM IBMX, HTRF cAMP; read-out: AC1 IC50 (μM) ± SEM
Doc: threshold 1 µM (exclusive). Items with IC50 beneath it return condition met; others return condition not met.

Examples with answers:
>>> print(df.to_string())
                                   compound                cat
0  Cc1cc(NCc2ccc(Cl)cc2)n(-c2ccccc2)n1 [AC10113A]  condition not met
1  Cc1cccc(CNc2cc(C)nn2-c2nc3c(c(=O)[nH]2)CCC3)c1 [AC10115A]      condition met
2  Cc1cc(=O)[nH]c(-n2nc(C)cc2NCc2ccc(Cl)cc2)n1 [AC10111A]      condition met

Q. Field: below-cutoff. Rule: recorded IC50 strictly less than 1 µM. Subject: CCc1cc(=O)[nH]c(-n2nc(C)cc2NCc2ccc(C(=O)c3ccccc3)cc2)n1 [AC10144A]
A. condition met

Q. Identify whether the compound CCc1cc(=O)[nH]c(-n2nc(C)cc2NCc2cccs2)n1 [AC10140A] records IC50 below 1 µM.
A. condition met

Q. In the record for CCc1cc(=O)[nH]c(-n2nc(C)cc2NCc2ccco2)n1 [AC10139A] , is IC50 less than 1 µM?
A. condition not met

Q. Is IC50 of CCc1cc(=O)[nH]c(-n2nc(-c3ccccc3)cc2NCc2ccc(OC)cc2)n1 [AC10112A] strictly below 1 µM?
A. condition met

Q. Please state whether IC50 is below 1 µM for Cc1cccc(CNc2cc(C)nn2-c2nccc(=O)[nH]2)c1 [AC10116A]
A. condition not met

Q. Below 1 µM on IC50? Entry Cc1cccc(CNc2cc(C)nn2-c2nc(C)cc(=O)[nH]2)c1 [AC10114A]
A. condition met

Q. Would you kindly verify if IC50 of Cc1cc(NCc2ccc(Cl)cc2)n(-c2nc3c(c(=O)[nH]2)CCC3)n1 [AC10110A] is strictly less than 1 µM?
A. condition not met

###

# TARGET_OR_TEST_SYSTEM: AC1 (Homo sapiens)
# MEASUREMENT_DESCRIPTION: cAMP accumulation (HTRF) in HEK cells stably expressing AC1, stimulated with A23187
# Type: cell-based
# Design: expressed in transfected cells; host or cells: HEK cells stably expressing AC1 (HEK-AC1), G418 selection
# IC50 listing for each entry below
Answer in nM, number only, no unit symbol.

>>> print(df.to_string())
                                smiles_code  observed_result
0  CCc1cc(=O)[nH]c(-n2nc(C)cc2NC(=O)c2cccc(C)c2)n1              400

Q. Name the reported IC50 value associated with the molecule "CCc1cc(=O)[nH]c(-n2nc(C)cc2NC(=O)c2cccc(OC)c2)n1"
A. 1000
